Data credit: ChEMBL document CHEMBL3992486

assay: Selectivity index, ratio of GI50 for human MCF7 cells to MIC for dormant Mycobacterium bovis BCG ATCC 35743; format: toxicity; conditions: pooled result: one value given for 3 cell lines, strains, targets or settings, read-out: Selectivity Index
Answer each item with its documented selectivity ratio.
Hey, just send me the number, nothing else.

Sample COc1ccc2cc(C3SCC(=O)N3NC(=O)c3ccncc3)c3nnnn3c2c1 (configuration not stated) — what was its selectivity ratio?
667

Next compound up: COc1ccc2c(c1)cc(C1SCC(=O)N1NC(=O)c1ccncc1)c1nnnn12 (configuration not stated)
11.8

Another compound: Cc1ccc2cc(C3SCC(=O)N3NC(=O)c3ccncc3)c3nnnn3c2c1 (configuration not stated)
833

Also need Cc1cccc2cc(C3SCC(=O)N3NC(=O)c3ccncc3)c3nnnn3c12 (configuration not stated) , thanks.
476

Can you check O=C(NN1C(=O)CSC1c1cc2ccccc2n2nnnc12)c1ccncc1 (configuration not stated) next?
588

What about Cc1ccc2c(c1)cc(C1SCC(=O)N1NC(=O)c1ccncc1)c1nnnn12 (configuration not stated) ?
29.2

Similarly, CO[C@H]1/C=C/O[C@@]2(C)Oc3c(C)c(O)c4c(O)c(c(/C=N/N5CCN(C)CC5)c(O)c4c3C2=O)NC(=O)/C(C)=C\C=C\[C@H](C)[C@H](O)[C@@H](C)[C@@H](O)[C@@H](C)[C@H](OC(C)=O)[C@@H]1C ?
1750

###

experiment: Selectivity index, ratio of GI50 for human MCF7 cells to MIC for dormant Mycobacterium tuberculosis H37Ra ATCC 25177; assay type: toxicity; settings: pooled result: one value given for 3 cell lines, strains, targets or settings, read-out: Selectivity Index
EXPERIMENTAL_ENDPOINT: selectivity ratio
Could you keep your reply to the number by itself?

Field request: selectivity ratio | item: Cc1cccc2cc(C3SCC(=O)N3NC(=O)c3ccncc3)c3nnnn3c12 (configuration not stated)
139

Can you check Cc1ccc2cc(C3SCC(=O)N3NC(=O)c3ccncc3)c3nnnn3c2c1 (configuration not stated) next?
94.3

Field entry: COc1ccc2c(c1)cc(C1SCC(=O)N1NC(=O)c1ccncc1)c1nnnn12 (configuration not stated)
238

Follow-up item: COc1ccc2cc(C3SCC(=O)N3NC(=O)c3ccncc3)c3nnnn3c2c1 (configuration not stated)
143

// query: O=C(NN1C(=O)CSC1c1cc2ccccc2n2nnnc12)c1ccncc1 (configuration not stated)
18.9

Subsequent entry: Cc1ccc2c(c1)cc(C1SCC(=O)N1NC(=O)c1ccncc1)c1nnnn12 (configuration not stated)
115

###

assay: Cytotoxicity against human MCF7 cells by MTT assay; format: cell-based
EXPERIMENTAL_ENDPOINT: GI50 (µM)
// return numeric value only (unit: µM, not printed)

# get_value(readout='GI50', item= CC(=O)O[C@H]1C(=O)[C@@]2(C)[C@H]([C@H](OC(=O)c3ccccc3)[C@]3(O)C[C@H](OC(=O)[C@H](O)[C@@H](NC(=O)c4ccccc4)c4ccccc4)C(C)=C1C3(C)C)[C@]1(OC(C)=O)CO[C@@H]1C[C@@H]2O [PACLITAXEL] )
87
